assay: yeast display, Sf9 membrane polyspecificity reagent, FACS + sequencing; frameworks hold sequencing errors
Quantity Measured: polyreactivity (PSR sort gate)

Below: 8 sequences and their reported polyreactivity (PSR sort gate).
# Monomer Sequence, polyreactivity (PSR sort gate)
rows = [
    ("QVQLVESGGGLVQAGGSLRLSCAASGFTFAHNAMGWYRQAPGKERELVAAITSRGGSTYYADSVKGRFTISRDNAKNTVYLQMNSLKPEDTAVYYCAARGVNRQVFNYWGQGTQVTVSS", "high polyreactivity"),
    ("QVQLEESGGGLVQAGGSLRIICAASGRTFQLYAMGWYRQAPGKERELVAAITWSSGRTSYADSVKGRFTISRDNAKNTVYLQMNSLKPEDTAVYYCAADVWGGLLPGYDYWGQGTQVTVSS", "high polyreactivity"),
    ("QVQLVESGGGLVQAGGSLRLSCAASGSIFYLYAMGWYRQEPGKERELVAAITSGDSTTYADSVKGRFTISRDNAKNTVYLQMNSLIPEDTAVYYCAADWPGLVGYHNSAENDYWGQGTQVTVSS", "low polyreactivity"),
    ("QVQRVESGGGLVQAGGSLRLSSADSGSTLSGYAMGWYRQAPGKERELVATIRITGGRTYYADSVKGRFTISRDNAKNTVYLQMNSLKPEDTAVYYCNVRSRRRVSSYDYWGQGTQVTVSS", "high polyreactivity"),
    ("QVQLVESGGGLVQAGGSLRLSCAASGSTFDYNTMGWYRQAPGKERELVAAISWRGVSTYYADSVKGRFTISRDNAKNTVYLQMNSLKTEDTAVYYCNAVHHYPEHIGGGYWGQGTQVTVSS", "low polyreactivity"),
    ("QVQLVESGGGLVQAGGSLRLSCAASGSTFYHNVRGWYRPAPGKERELVASIDTGDSTNYADSVKGRFTISRDNAKNTVYFQMNSLTPEDTAVYYCNADSYAALNKRGYDYWGQGTQVTVSS", "low polyreactivity"),
    ("QVQLVESGGGLVQAGGSLRLSCAASGRTFRGYAMGWYRQAPGKERELVAAISVTGSSTNYADSVKGRFTISRDNAKNTVYLQMNSLKPEDTAVYYCAASYRLYKYDYWGQGTQVTVSS", "high polyreactivity"),
    ("QVQLVESGGGLVQAGGSLRLSCAASGLTFEGNAMGWYRQAPGKERELVAAISRRGGSTYYADSVKGRFTISRHNAKNTVYLQMNSLKPEDSAVYYCAADRQPYTDKYDYWGQGTQVTVSS", "high polyreactivity"),
]

Count: 6. Required value per item: polyreactivity (PSR sort gate).
1. QVQLVESGGGLVQEGGSLRLTCAASGRIFVYNAMGWYRQAPRKDRELVAAISWRGDGTYYADSVKGLFTISRDNAKITVYLQMNSLKPEDTAVYYCAADYVYYYHEYDYWGQGTQVTVSS
2. QVQLVESGGGLVQAGGSLRLSCAASGNILEYNAMGWYRQAPGKERELVAAISRGGITNYADSVKGRFTISRDNAKNTVYLQMNSLKPEDTAVYYCATRWIGYTSQWDHFEYDYWGQGTQVTVSS
3. QVQLVESGGGLVQAGGSLRLICAASGFTFRNNAMGWYRQAPGKERELVARITFRGGSTYYADSVKGSFTISRDNAKNTVYLQMNSLNPEHTAVYYCAVDWLSVTSTIKFVMDYWGQGTQVTVSS
4. QVQLVESGGGLVQAGGSLRLSCAASGGTLRYYVMGWYRQAPGKERELVAAISWSGDSTYYADSVKGRFTISRDNAKNTVYLEMNSLKPDDTAVYYCAATYYVTYYYGQANHGYDYWGPGTQVTVSS
5. QVQIVESGGGLVQARGSLLLSSAASGFTSNYYALGWYRHAPGKESELVAAITTGGSTHYADSVKGRFTFSRDNAQNTVYLQLNSLKQVDSAVYYCAAGTNRQQQRYFHNGGYYQYNYWGQGTQVTVSS
6. QVQLVESGGGLVQEGGSLRLSCAASGSTFVHYDMGWYRQAPGKERELVAGITDTDNHELRRLCEGRFTISRDKAKNTVYLQMNSLKPEDTAVYYCNADDTYYPLGGITGYDYWGQGTQVTVSS

low polyreactivity
low polyreactivity
low polyreactivity
low polyreactivity
low polyreactivity
low polyreactivity

* * *

assay: yeast display, Sf9 membrane polyspecificity reagent, FACS + sequencing; frameworks hold sequencing errors
Quantity Measured: polyreactivity (PSR sort gate)

Check out these entries, answers already filled in.
# Monomer Sequence, Quantity Measured, Reported Measurement
records = [
    ("QDQLVESGGGLVQAGGSLRLSCAASGRTFGTYAMGWYRQAPGKERELVAAISSSGGRTYYADSVKGRFTISRDNAKNTVYVLMHSLKPEVTAVYYFAKSRYATQTDYNYWGQGTQVTVSS", "polyreactivity (PSR sort gate)", "high polyreactivity"),
    ("QDQLVESGGGLVQAGGSLRLSCAASGRTFLRNAMGWYRQAPGKERELVAAISRSGGSTYYADSVKGRVTISRDNAKNTVYLQMNSLKPEDTAVYYCAADDYGGYYYWGQGTQVTVSS", "polyreactivity (PSR sort gate)", "high polyreactivity"),
    ("QVQLVESGGGLVQAGGSLRLSCAASGSTFASYAMGSYRQATGKETELVASITRRGGSTDYADSVKGRFTISRDNAKTTVYLQMNSLKPEDTSVYYAVETAWSYNSNYWFDYWGQGTQVTVSS", "polyreactivity (PSR sort gate)", "high polyreactivity"),
    ("QVQLVESGGGLVQAGGSLRLSCAASGRTLEQYAMGWYRQAPGKERELVAAINKSGARTYYADSVKGRFTISRDNAKNSVYLQMNSQKPEDTAVYYCNTVGPSYLFDYWGQGTQVTVSS", "polyreactivity (PSR sort gate)", "high polyreactivity"),
]

// for each sequence in input: emit polyreactivity (PSR sort gate)
1. QVQLVESGGGLVQAGGSLRLSCDASGSTFDTYAMGCYTQAPGKERELVAAITEDGASTYYADSVKGRFTISRDNAKYTVYLQMNSLKPEDTAVYYCAAEPTYWPVWYVLYDYLGQGTQVTVSS
2. QVQLVESGGGLVQAGGSLRLSCAASGSIFGFYAMGWDRQAPGKERELVAAIRWRDGRTYYADSVKGRFTISRDNAKNTVYLQMNSLKPEDTAVYYCAAGTPWAYDYWGQGTQVTVSS

low polyreactivity
high polyreactivity

Batch request: polyreactivity (PSR sort gate) for each of the following sequences.
1. QVELVESGGGLVQAGGSLRLSCAASGSTFFKYDMGWYRQAPGKERELVAVITWSGGTTFYADSVKGRFTISRDNAKNTVYLQMNSLKPEDTAVYYCAADYYGYRYDYWGQGTQVTVSS
2. QVQLVESGGGLVQAGGSLRLSCAASGIIFRNYAMGWYRQAPGKERELVATITGDGGSTYYADSVKGRFTISRDNAKNTVYLQMNSLKPEDTAVDYCAADRPYAGRYWKGYHSALYDYWGQGTQVTVSS
3. QVQLVESGGGLVQAGGSLRLSCAASFRYNDMGWYRQAPGKERELDAAISSGASTSYPDSVKGRFTISRDNAKNTVYLQMNSLKPEDSAVSYCAAETYELYGLNEYDYWGQGTQVTVSS
4. QVQLVESGGGLVQAGGSLRLSCAASGFIFDDNAMGRYRQAPGKERELVAAITSGGGSTYYADSVKGRFTISRDNAKNTVYLQMNSLKPEDNAVYYCNAVPSQHVEFDYWGQGTQVTVSS
5. QVQHVESGGGLLQAGGSLRLSCAASGGTFTPNVMGWYRQAPGKVRELVAAIDDSGSRTYYADSVKGRFTISRDYAKNTVYLQMNSLKPEDTAVYFCAVFWYGTYPMYYWGQGTQVTVSS
6. QVQLVESGGGLVHAGGRLRLSCAASGRTFGFYTMGWYRQPPGKERELVAGISRGGSTTYADSVKGRFTISRDNAKNTVYLQMNSLKPEDTAVYYCNADRSHYWLPYGVRFDYWGQGSQVTVSS

["low polyreactivity", "low polyreactivity", "low polyreactivity", "low polyreactivity", "low polyreactivity", "low polyreactivity"]

* * *

test: yeast display, Sf9 membrane polyspecificity reagent, FACS + sequencing; frameworks hold sequencing errors
Quantity Measured: polyreactivity (PSR sort gate)

These recorded examples may help you get a feel for the data.
# Monomer Sequence, polyreactivity (PSR sort gate)
records = [
    ("QVQLVESGGGLVQAGGSLRLSCAASGFNFAFYDMGWYRQAPGKERELVAAISWGGSTYYADSVKGRFTISRDNAKNTVYLQMNRLKPEDTAVYYCAARLSRSYRYGYWGQGTQVTVSS", "high polyreactivity"),
    ("QVQLVESGGGLVQAGGSHRLSCSASGLTFSYYAMGGYRQEPGKERELVAAITRTGDRTYYADSVKGRFTISRDNAKNTVYLQMNSLKPEDTAVYYCAAKWRIVGSRQWYDYWGQGTQVTVSS", "high polyreactivity"),
    ("QVQLVESGGGLVQAGGSLRLSCAASGIIFTKYAMGWYRQAPGTERELVAAITSGGRTNYADSVKGRFTISRDNAKNTDYLQMNSLKPEDTAVYYCAARYPSRDLLRRYKYWGQGTQVTVSS", "high polyreactivity"),
    ("QVQLVESGGGLVQAGGSLRLICAASGRIFATYTMGWYRQAPGKERELVAAISRNGGSTYYADSVKGRFTISRDYAKNTVYLQMNSLKTEDTAVYYCNAERRDDRGFDYWGQGTQVTVSS", "low polyreactivity"),
    ("PVQLEESGGGLDQAGGSLRISCAASGRIFWAKAMGWYRQAPGKERELVAAINRRTGITYYADSVKGRFTISRDNAKNTVYFQMNSLKPEDTAVYYCAADWRTKCYDSLGQGTQVTVSS", "high polyreactivity"),
    ("QVQLGESGGGFVQAGGSLRLSCAASGFIFAPYAMGWYRHAPGKERELDAFISWSGGRTYYADSVKGRFTLSRDKAKNTVYLLMNSLNPEDTAVYYCNARGSRRGGPGYEYWGQGTQVTVSS", "high polyreactivity"),
]

Now consider the entry below.
Assign polyreactivity (PSR sort gate) to the following record: `QVKLVESGGGLVQAGGSLRLSCAASGFTFSRNTRGWYRQAPGKERELVAAIDSTGGSTYYADSEKGRFTISRDNAKNTVYLQMNCLNPEDTAVYYCATVLPDGRVRLRILWGKRVWYDYWGQGTHVTVSS`
low polyreactivity

Origin of the recorded values: the nanobody polyreactivity screen of Harvey et al. (2022)
